Tested on: T1, IL-11 (Cat. 12225-HNCE, Sino Biological Inc.) (UniProt P20809 22-199, limits assumed)
T1 sequence (looked up): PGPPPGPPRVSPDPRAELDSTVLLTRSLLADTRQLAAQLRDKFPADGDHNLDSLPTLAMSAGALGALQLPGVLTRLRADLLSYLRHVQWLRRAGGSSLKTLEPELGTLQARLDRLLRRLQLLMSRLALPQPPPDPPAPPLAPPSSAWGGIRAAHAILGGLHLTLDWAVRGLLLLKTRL
Assay name: competition ELISA, IL-11/IL-11Rα/GP130 complex
Decide using IC50 alone. Strictly below 0.8 µg/mL: YES. Equal to or above 0.8 µg/mL: NO.

# Binder, Label value
data = [
    ("hz8C8-VHm1-m7 + hz8C8-VLm7-m2 (antibody, human IgG1, kappa, V domains shown, human IgG1 constant regions) VH: EVQLVESGGGLVQPGGSLRLSCAASGFTFSSFGMHWVRQAPGKGLEWVSVITPGSNTIYYADTVKGRFTISRDNAKNSLYLQMNSLRAEDTAVYYCAREYYSYDEGFAYWGQGTLVTVSS VL: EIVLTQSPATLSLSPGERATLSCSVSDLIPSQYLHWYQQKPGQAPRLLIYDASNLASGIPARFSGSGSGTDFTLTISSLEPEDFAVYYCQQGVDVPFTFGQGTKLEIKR", "NO"),
    ("hz8C8-VHm1-m3 + hz8C8-VLm7-m4 (antibody, human IgG1, kappa, V domains shown, human IgG1 constant regions) VH: EVQLVESGGGLVQPGGSLRLSCAASGFTFSSFGMHWVRQAPGKGLEWVAYITPGSNTIYYADTVKGRFTISRDNAKNSLYLQMNSLRAEDTAVYYCAREYSSYDEGFAYWGQGTLVTVSS VL: EIVLTQSPATLSLSPGERATLSCSVSDLIPSQYLHWYQQKPGQAPRLLIYRTSNRASGIPARFSGSGSGTDFTLTISSLEPEDFAVYYCQQGVDVPFTFGQGTKLEIKR", "YES"),
    ("hz8C8-VHm1 + hz8C8-VLm7-m3 (antibody, human IgG1, kappa, V domains shown, human IgG1 constant regions) VH: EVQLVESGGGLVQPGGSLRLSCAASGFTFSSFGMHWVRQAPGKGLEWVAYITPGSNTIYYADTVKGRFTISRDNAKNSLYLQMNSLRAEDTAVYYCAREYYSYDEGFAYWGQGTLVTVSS VL: EIVLTQSPATLSLSPGERATLSCSVSDLIPSQYLHWYQQKPGQAPRLLIYGASNLASGIPARFSGSGSGTDFTLTISSLEPEDFAVYYCQQGVDVPFTFGQGTKLEIKR", "YES"),
    ("hz8C8-VHm1 + hz8C8-VLm7-m1 (antibody, human IgG1, kappa, V domains shown, human IgG1 constant regions) VH: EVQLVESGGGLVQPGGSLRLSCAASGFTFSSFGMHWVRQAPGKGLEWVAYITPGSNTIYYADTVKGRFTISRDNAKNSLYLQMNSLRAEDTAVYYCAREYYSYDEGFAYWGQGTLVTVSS VL: EIVLTQSPATLSLSPGERATLSCSVSDLIPSQYLHWYQQKPGQAPRLLIYRASNLASGIPARFSGSGSGTDFTLTISSLEPEDFAVYYCQQGVDVPFTFGQGTKLEIKR", "YES"),
    ("hz8C8-VHm1-m3 + hz8C8-VLm7-m1 (antibody, human IgG1, kappa, V domains shown, human IgG1 constant regions) VH: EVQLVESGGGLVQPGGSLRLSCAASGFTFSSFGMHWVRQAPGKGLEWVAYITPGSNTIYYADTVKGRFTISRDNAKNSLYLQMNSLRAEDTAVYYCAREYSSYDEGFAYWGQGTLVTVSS VL: EIVLTQSPATLSLSPGERATLSCSVSDLIPSQYLHWYQQKPGQAPRLLIYRASNLASGIPARFSGSGSGTDFTLTISSLEPEDFAVYYCQQGVDVPFTFGQGTKLEIKR", "YES"),
    ("hz8C8-VHm4 + hz8C8-VL (antibody, human IgG1, kappa, V domains shown, human IgG1 constant regions) VH: EVQLVESGGGLVQPGGSLRLSCAASGFTFSSFGMHWVRQAPGKGLEWVAYITSGANTIYYADTVKGRFTISRDNAKNSLYLQMNSLRAEDTAVYYCAREYYSYDEGFAYWGQGTLVTVSS VL: EIVLTQSPATLSLSPGERATLSCSVSSSISSNYLHWYQQKPGQAPRLLIYRTSNLASGIPARFSGSGSGTDFTLTISSLEPEDFAVYYCQQGVDVPFTFGQGTKLEIKR", "NO"),
    ("hz8C8-VHm1 + hz8C8-VLm7 (antibody, human IgG1, kappa, V domains shown, human IgG1 constant regions; also called hz8C8m7) VH: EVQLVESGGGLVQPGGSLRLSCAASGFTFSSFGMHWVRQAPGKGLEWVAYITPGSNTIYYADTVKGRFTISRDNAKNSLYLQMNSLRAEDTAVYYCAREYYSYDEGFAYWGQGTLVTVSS VL: EIVLTQSPATLSLSPGERATLSCSVSDLIPSQYLHWYQQKPGQAPRLLIYRTSNLASGIPARFSGSGSGTDFTLTISSLEPEDFAVYYCQQGVDVPFTFGQGTKLEIKR", "NO"),
    ("hz8C8-VHm1-m3 + hz8C8-VLm7 (antibody, human IgG1, kappa, V domains shown, human IgG1 constant regions) VH: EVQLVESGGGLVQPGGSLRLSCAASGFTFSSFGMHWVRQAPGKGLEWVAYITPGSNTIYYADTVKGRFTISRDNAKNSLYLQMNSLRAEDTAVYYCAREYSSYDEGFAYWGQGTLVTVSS VL: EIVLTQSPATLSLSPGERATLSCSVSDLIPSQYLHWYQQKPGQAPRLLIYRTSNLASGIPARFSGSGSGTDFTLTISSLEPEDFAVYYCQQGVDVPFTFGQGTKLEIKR", "NO"),
    ("hz8C8-VHm1-m1 + hz8C8-VLm7 (antibody, human IgG1, kappa, V domains shown, human IgG1 constant regions) VH: EVQLVESGGGLVQPGGSLRLSCAASGFTFSSYGMHWVRQAPGKGLEWVAYITPGSNTIYYADTVKGRFTISRDNAKNSLYLQMNSLRAEDTAVYYCAREYYSYDEGFAYWGQGTLVTVSS VL: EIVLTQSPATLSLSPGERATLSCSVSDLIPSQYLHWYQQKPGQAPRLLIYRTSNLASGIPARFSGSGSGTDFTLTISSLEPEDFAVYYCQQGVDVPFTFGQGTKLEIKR", "YES"),
    ("hz8C8-VHm6 + hz8C8-VLm7 (antibody, human IgG1, kappa, V domains shown, human IgG1 constant regions) VH: EVQLVESGGGLVQPGGSLRLSCAASGFTFSSFGMHWVRQAPGKGLEWVAYITPGSSTIYYADTVKGRFTISRDNAKNSLYLQMNSLRAEDTAVYYCAREYYSYDEGFAYWGQGTLVTVSS VL: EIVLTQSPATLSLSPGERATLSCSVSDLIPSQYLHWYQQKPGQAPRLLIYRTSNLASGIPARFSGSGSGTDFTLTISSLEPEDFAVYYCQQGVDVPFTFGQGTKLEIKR", "YES"),
    ("hz8C8-VHm1-m10 + hz8C8-VLm7-m2 (antibody, human IgG1, kappa, V domains shown, human IgG1 constant regions) VH: EVQLVESGGGLVQPGGSLRLSCAASGFTFSSFGMHWVRQAPGKGLEWVAYITPGSNTIYYADTVKGRFTISRDNAKNSLYLQMNSLRAEDTAVYYCAREYYSSDEGFAYWGQGTLVTVSS VL: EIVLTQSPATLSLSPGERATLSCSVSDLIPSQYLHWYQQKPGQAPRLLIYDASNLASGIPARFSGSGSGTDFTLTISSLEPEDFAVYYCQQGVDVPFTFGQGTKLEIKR", "NO"),
]

// data source = patent US20250197488A1
